Can you tell me Kd for the items I'm about to list?
Target: T1, hNav1.7-loopA3-llama Fc fusion (human)
T1 construct: also called hNav1.7-loopA3-llFc; loopA3-llamaFc chimera
T1 chain: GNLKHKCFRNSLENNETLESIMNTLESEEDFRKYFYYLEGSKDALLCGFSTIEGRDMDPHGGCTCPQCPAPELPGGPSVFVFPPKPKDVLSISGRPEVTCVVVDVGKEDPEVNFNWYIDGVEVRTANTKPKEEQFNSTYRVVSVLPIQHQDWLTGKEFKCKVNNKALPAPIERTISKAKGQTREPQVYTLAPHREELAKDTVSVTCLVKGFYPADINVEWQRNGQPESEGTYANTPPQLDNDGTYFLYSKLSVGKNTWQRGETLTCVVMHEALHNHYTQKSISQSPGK
Assay: Biacore SPR, antigen on CM5 chip, mAb in flow
Numbers only, in nM.

Consider the reported Kd for these binders:
- binder: "4E8 (antibody, human IgG1, V domains shown) VH: EVQLQESGGGLVQPGGSLRLSCAASGFTFDDYAMSWVRQAPGKGLEWVSAISWNGGSTYYAESMKGRFTISRDNAKNTLYLQMNSLKSKDTAVYYCARRRYGLGSEYDYWGQGTQVTVSS VL: NFMLTQPSAVSVSLGQTARITCQGSSFGSSYAHWYQQMPGQAPILVIYRDSERPSGIPDRFSGSNSGGTATLTISGAQAEDEADYYCQSGSSSGNAHAVFGGGTHLTVLG"
  property label: "Kd"
  value observed: 4.28
- binder: "6H8 (antibody, human IgG1, V domains shown) VH: EVQLVESGGGLVQPGGTLRLSCAASGFTFSNYWMHWVRQAPGKGLEWVSVIDRGGGGTRYADSVKGRFTISRDNAKNTLYLRMNSLKPEDTALYYCTRDRNGEYDYWGRGTQVTVSS VL: DIQMTQSPSSVTASAGEKVTINCKSSQSVLYSSNQKNYLAWYQQRLGQSPRLLIYWASTRESGVPDRFSGSGSTTDFTLTINNFQPEDAAVYYCQQGYSAPLTFGQGTKVELK"
  property label: "Kd"
  value observed: 0.00181

Let us examine a further case.
Report Kd for 2F12 (antibody, human IgG1, V domains shown) VH: QVQLVESGGGLVQPGGSLRLSCAASGFTFSSYWMYWVRQAPGKGLEWVSAINTGGGSTYYADSVKGRFTISRDNAKNTLYLQMNSLKPEDTALYYCARGPGYSGKYIEGWAYWGQGTQVTVSS VL: DIVMTQSPRSVTASVGEKVFINCKSSQSVVSESNQRSYLNWYQQRPGQSPRLLIYYASTQESGLPDRFSGSGSTTDFTLTISSVQPEDAAVYYCQQAYSAPYSFGSGTRLEIK please.
0.0241
